assayed system: UniProt P08684
Sequence (P08684 whole entry): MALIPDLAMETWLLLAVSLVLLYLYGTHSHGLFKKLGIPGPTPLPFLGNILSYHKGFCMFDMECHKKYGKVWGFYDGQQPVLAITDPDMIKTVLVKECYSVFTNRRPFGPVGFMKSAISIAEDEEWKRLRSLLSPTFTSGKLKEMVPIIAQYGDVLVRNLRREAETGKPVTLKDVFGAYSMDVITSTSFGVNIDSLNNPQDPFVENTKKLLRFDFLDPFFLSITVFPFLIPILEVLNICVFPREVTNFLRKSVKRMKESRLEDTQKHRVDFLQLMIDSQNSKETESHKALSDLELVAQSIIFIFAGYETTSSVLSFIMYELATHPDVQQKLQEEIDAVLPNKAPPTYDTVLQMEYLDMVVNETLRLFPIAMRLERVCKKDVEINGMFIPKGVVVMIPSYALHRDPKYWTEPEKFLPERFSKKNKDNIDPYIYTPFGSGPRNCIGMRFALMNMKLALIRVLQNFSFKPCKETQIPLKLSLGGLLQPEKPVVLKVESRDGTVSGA
protocol details: Inhibition of CYP3A4 in human liver microsomes assessed as enzyme-mediated metabolite formation at 0.3 uM using midazolam as substrate preincubated for 20 mins followed by substrate addition measured after 30 mins in presence of NADPH by LC-MS/MS analysis relative to control
Type: ADME
Design: scale not given: the % may be the effect or the level left
measurement conditions: probe midazolam, read-out: Activity
recorded metric: activity at 0.5 h, 0.3 µM (%)
Numeric only. Scale: %

**Query** Can you share its activity at 0.5 h, 0.3 µM? I mean this compound: CCCCCCCC(=O)CCc1ccc(O)c(OC)c1
**Result** 88.9

----------
assayed system: Cytochrome P450 1A2 (Homo sapiens, UniProt P05177)
Sequence (P05177 whole entry): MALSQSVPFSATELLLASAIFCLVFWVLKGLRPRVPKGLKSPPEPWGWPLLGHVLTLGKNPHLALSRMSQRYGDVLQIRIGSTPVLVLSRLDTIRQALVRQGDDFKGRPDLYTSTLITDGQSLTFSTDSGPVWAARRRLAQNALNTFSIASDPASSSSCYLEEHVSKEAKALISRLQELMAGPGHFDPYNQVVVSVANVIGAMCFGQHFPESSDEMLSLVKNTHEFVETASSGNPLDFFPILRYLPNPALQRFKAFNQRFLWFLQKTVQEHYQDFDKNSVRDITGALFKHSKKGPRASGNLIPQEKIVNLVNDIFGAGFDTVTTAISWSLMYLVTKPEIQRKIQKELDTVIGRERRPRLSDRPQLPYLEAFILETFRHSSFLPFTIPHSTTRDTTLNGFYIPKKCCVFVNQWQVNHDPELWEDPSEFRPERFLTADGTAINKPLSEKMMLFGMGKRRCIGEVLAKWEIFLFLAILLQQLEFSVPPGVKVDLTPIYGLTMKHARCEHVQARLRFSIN
protocol details: Inhibition of CYP1A2 in human liver microsomes assessed as enzyme-mediated metabolite formation using phenacetin as substrate incubated for 5 mins followed by NADPH addition measured after 30 mins by LC-MS/MS analysis
Type: ADME
recorded metric: IC50 (µM)
Express it in µM; write the number only.

**Query** So what IC50 did CCCCCCCC(=O)CCc1ccc(O)c(OC)c1 get with Cytochrome P450 1A2 (Homo sapiens, UniProt P05177)?
**Result** 7.1

Origin of the recorded values: ChEMBL document CHEMBL4007467
